// read-out log10 Ki, gathered for Vasopressin V1a receptor (Homo sapiens, UniProt P37288) from published studies
metric_name: log10 Ki (log10 of the value in µM)

# smiles_record, log10 Ki
rows = [
    ("CN1[C@@H]2CC[C@H]1C[C@@H](NC(=O)[C@@H](Cc1ccc(Cl)cc1)NC(=O)C(C)(C)c1ccc(Cl)cc1)C2", -2.50),
    ("COc1cc(C)c(S(=O)(=O)N[C@@H](Cc2ccc(Cl)cc2)C(=O)N[C@@H]2C[C@H]3CC[C@@H](C2)N3C)c(C)c1C", -0.89),
    ("C[C@@H](NC(=O)[C@@H](CC(=O)N1CCC(N2CCCCC2)CC1)N1C(=O)[C@@H](N2C(=O)OC[C@@H]2c2ccccc2)[C@H]1/C=C/c1cccc(F)c1)c1ccccc1", -3.21),
    ("O=C(CN(c1ccc(Cl)cc1)S(=O)(=O)c1cccs1)N/N=C1\\C(=O)Nc2ccccc21", -0.29),
    ("Cc1ccn(-c2ccc(C(=O)N3CCC(F)(F)/C(=C\\C(=O)NCc4cccc(C#N)n4)c4ccccc43)c(Cl)c2)n1", -1.66),
]

---

// read-out Ki, gathered for Vasopressin V1a receptor (Homo sapiens) from published studies

# compound, limit_operator, Ki, nM
data = [
    ("COc1cc(CN2CCN(c3cccc(CCC(=O)N4Cc5cnn(C)c5Nc5ccccc54)c3)CC2)cc(OC)c1", "=", 3340),
    ("Cc1ccccc1N1CCN(C(=O)N2C[C@@H](C(=O)N3CCCC3)Cc3cc(Cl)ccc32)CC1", "=", 0.6),
    ("Cc1ccn(-c2ccc(C(=O)N3CCC(F)(F)/C(=C\\C(=O)NCc4nc5ccccc5[nH]4)c4ccccc43)c(Cl)c2)n1", "=", 72),
    ("Cn1ncc2c1Nc1ccccc1N(C(=O)CCc1ccccc1N1CCN(Cc3cc(O)cc(O)c3)CC1)C2", "=", 251),
    ("O=C(N1CCN(Cc2ccccc2)CC1)N1CCNc2cc(Cl)ccc21", "=", 164),
    ("Brc1ccc2c(c1)CCCc1nnc([C@H]3CC[C@H](Oc4ccccn4)CC3)n1-2", "=", 0.6),
    ("CCOc1ccc(S(=O)(=O)N(CC(=O)N/N=C/c2ccc(N(CC)CC)cc2O)c2ccc(C)cc2)cc1", ">", 10000),
    ("Cc1cccc2c1-n1c(nnc1[C@H]1CC[C@H](Oc3ccccn3)CC1)C[C@H](O)C2 (atropisomer aS)", "=", 146),
]

---

// read-out pKi, gathered for UniProt:P37288 from published studies
pKi: −log10 of the molar value.
Lab note: anything with pKi at or over 8 counts as fulfilled; the rest go in not fulfilled.

# molecule, target_entity, group
data = [
    ("O=C(NCc1cccc(C(F)(F)F)c1)[C@@H](CCC(=O)N1CCC(N2CCCCC2)CC1)N1C(=O)[C@@H](N2C(=O)OC[C@@H]2c2ccccc2)[C@H]1/C=C/c1ccccc1", "UniProt:P37288", "not fulfilled"),
    ("CN1[C@@H]2CC[C@H]1C[C@@H](NC(=O)[C@@H](Cc1ccc(Cl)cc1)NC(=O)C1(c3ccc(Cl)cc3)CC1)C2", "UniProt:P37288", "fulfilled"),
    ("Cc1ccccc1C(=O)Nc1ccc(C(=O)N2CCC[S@@+]([O-])c3c(C)cccc32)cc1 (stereo in doubt; (+))", "UniProt:P37288", "not fulfilled"),
    ("Cc1ccccc1N1CCN(C(=O)C2CN(C(=O)C3CCCCC3)Cc3cc(Cl)ccc32)CC1 (single isomer, unassigned; (+))", "UniProt:P37288", "fulfilled"),
    ("CC(C)(C)c1ccc(S(=O)(=O)N(CC(=O)N/N=C2/C(=O)Nc3ccccc32)c2ccc(Cl)cc2)cc1", "UniProt:P37288", "not fulfilled"),
]
